# reported IC50; entries follow
measured-target: AKT (Homo sapiens, UniProt Q9Y243)
Construct: Kinases are expressed as either kinase domains or full length constructs; made in house
Sequence (Q9Y243 whole entry, the tested form may be a part): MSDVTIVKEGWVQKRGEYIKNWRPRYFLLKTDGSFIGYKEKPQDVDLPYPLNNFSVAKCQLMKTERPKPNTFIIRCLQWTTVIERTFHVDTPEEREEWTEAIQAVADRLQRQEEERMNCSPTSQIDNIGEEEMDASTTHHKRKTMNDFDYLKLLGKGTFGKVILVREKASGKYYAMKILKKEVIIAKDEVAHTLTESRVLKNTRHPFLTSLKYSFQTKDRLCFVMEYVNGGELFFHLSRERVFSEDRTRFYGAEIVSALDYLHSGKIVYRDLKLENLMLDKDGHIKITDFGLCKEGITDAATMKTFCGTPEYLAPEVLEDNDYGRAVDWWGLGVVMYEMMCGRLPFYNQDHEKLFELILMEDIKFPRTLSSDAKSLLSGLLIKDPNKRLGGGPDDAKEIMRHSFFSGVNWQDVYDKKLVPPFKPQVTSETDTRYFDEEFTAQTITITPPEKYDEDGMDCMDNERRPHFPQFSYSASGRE
assay-comment: Kinase inhibition assay (33P transfer), AKT
Assay type: biochemical
assay-setup: Table 2, kinase inhibition class; read-out: AKT3-1
Source text: The inhibitor compounds described herein are screened in the following manner. […] Kinases are expressed as either kinase domains or full length constructs fused to glutathione S-transferase (GST) or polyHistidine tagged fusion proteins in either E. colior Baculovirus-High Five expression systems. […]
readout-kind: IC50

COc1cc(Nc2ncnc(-n3c(NCc4ccc(C)cc4)nc4ccccc43)n2)cc(OC)c1OC: > 9.04 µM
O=C(O)Cc1cccc(Nc2ncnc(-n3c(NCc4ccccc4)nc4ccccc43)n2)c1: > 9.97 µM
CN(c1cccc(Cl)c1)c1ncnc(Nc2cccc(CNC(=O)O[C@@H]3CCOC3)c2)n1: > 9.89 µM
c1ccc(COc2cccc(Nc3ncnc(-c4cccs4)n3)c2)cc1: > 12.5 µM
O=c1[nH]c2ccccc2n1-c1ncnc(Nc2ccc3ccccc3c2)n1: > 12.7 µM
COc1cc(Nc2ncnc(-n3c(Nc4ccccc4C(C)C)nc4ccccc43)n2)cc(OC)c1OC: > 8.8 µM
O=C(O)Cc1cccc(Nc2ncnc(Nc3cc(-c4ccccc4)n[nH]3)n2)c1: > 11.6 µM
CN1CCN(Cc2cccc(Nc3ncnc(Nc4cccc5ccccc45)n3)c2)CC1: > 10.6 µM
